Origin of measurements: paper PMC11345841

Molecular target: EPHB1 (Homo sapiens, UniProt P54762)
Construct: purchased Eurofins DiscoverX KINOMEscan (scanTK)
Sequence (P54762 18-984): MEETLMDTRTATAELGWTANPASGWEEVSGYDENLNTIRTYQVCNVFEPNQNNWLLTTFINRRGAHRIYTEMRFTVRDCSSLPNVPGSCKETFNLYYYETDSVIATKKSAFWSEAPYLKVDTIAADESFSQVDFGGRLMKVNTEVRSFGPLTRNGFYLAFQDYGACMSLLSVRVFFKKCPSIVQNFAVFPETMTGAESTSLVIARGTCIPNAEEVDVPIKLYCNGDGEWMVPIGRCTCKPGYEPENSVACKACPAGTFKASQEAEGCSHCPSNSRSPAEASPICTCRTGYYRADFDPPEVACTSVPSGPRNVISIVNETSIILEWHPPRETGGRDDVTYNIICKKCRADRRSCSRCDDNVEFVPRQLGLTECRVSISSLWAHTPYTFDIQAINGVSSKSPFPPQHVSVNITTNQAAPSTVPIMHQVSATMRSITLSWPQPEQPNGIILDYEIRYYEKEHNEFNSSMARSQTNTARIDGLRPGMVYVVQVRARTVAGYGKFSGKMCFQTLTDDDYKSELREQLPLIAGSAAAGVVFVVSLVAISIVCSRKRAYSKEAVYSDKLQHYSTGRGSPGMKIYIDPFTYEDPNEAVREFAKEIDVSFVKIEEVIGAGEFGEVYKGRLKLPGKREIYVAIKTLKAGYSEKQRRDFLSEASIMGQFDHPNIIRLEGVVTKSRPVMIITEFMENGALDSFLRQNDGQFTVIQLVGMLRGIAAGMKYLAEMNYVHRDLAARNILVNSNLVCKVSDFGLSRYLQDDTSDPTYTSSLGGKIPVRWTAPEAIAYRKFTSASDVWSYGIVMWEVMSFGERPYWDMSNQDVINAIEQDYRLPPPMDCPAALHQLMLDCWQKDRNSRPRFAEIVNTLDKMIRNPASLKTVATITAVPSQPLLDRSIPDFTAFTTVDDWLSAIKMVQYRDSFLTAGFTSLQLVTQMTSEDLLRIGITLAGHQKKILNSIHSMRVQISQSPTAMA
Test: KINOMEscan ScanTK
Assay type: binding
Details: EPHB1; read-out: %Control @1000nM
PARAMETER MEASURED: remaining binding at 1 µM (%)

COC(=O)c1cnc(S(C)(=O)=O)nc1N1CCCC(n2nc(-c3ccc(Oc4ccccc4)cc3)c3c(N)ncnc32)C1 (stereo not shown)
88
CCOC(=O)c1cnc(S(C)(=O)=O)nc1N1CCC[C@@H](n2nc(-c3ccc(Oc4ccccc4)cc3)c3c(N)ncnc32)C1
91
Cc1cnc(S(C)(=O)=O)nc1N1CCCC(n2nc(-c3ccc(Oc4ccccc4)cc3)c3c(N)ncnc32)C1 (stereo not shown)
93
CNC(=O)c1cnc(S(C)(=O)=O)nc1N1CCCC(n2nc(-c3ccc(Oc4ccccc4)cc3)c3c(N)ncnc32)C1 (stereo not shown)
91

* * *

Biological target: ABL1(Q252H)-phosphorylated (Homo sapiens, UniProt P00519, Q252H)
Construct: purchased Eurofins DiscoverX KINOMEscan (scanTK)
Test: KINOMEscan ScanTK
Assay type: binding
Conditions: @1000nM, read-out: % difference (compound - Ib %Control)
PARAMETER MEASURED: difference in %Control versus reference Ib at 1 µM (%)

COC(=O)c1cnc(S(C)(=O)=O)nc1N1CCCC(n2nc(-c3ccc(Oc4ccccc4)cc3)c3c(N)ncnc32)C1 (stereo not shown)
-2
CNC(=O)c1cnc(S(C)(=O)=O)nc1N1CCCC(n2nc(-c3ccc(Oc4ccccc4)cc3)c3c(N)ncnc32)C1 (stereo not shown)
-1

P: CCOC(=O)c1cnc(S(C)(=O)=O)nc1N1CCC[C@@H](n2nc(-c3ccc(Oc4ccccc4)cc3)c3c(N)ncnc32)C1
Q: Cc1cnc(S(C)(=O)=O)nc1N1CCCC(n2nc(-c3ccc(Oc4ccccc4)cc3)c3c(N)ncnc32)C1 (stereo not shown)
When P and Q are compared, which has the higher number for difference in %Control versus reference Ib at 1 µM? State your choice using its label.
Q

* * *

Biological target: MUSK (Homo sapiens, UniProt O15146)
Construct: purchased Eurofins DiscoverX KINOMEscan (scanTK)
Sequence (O15146 24-869): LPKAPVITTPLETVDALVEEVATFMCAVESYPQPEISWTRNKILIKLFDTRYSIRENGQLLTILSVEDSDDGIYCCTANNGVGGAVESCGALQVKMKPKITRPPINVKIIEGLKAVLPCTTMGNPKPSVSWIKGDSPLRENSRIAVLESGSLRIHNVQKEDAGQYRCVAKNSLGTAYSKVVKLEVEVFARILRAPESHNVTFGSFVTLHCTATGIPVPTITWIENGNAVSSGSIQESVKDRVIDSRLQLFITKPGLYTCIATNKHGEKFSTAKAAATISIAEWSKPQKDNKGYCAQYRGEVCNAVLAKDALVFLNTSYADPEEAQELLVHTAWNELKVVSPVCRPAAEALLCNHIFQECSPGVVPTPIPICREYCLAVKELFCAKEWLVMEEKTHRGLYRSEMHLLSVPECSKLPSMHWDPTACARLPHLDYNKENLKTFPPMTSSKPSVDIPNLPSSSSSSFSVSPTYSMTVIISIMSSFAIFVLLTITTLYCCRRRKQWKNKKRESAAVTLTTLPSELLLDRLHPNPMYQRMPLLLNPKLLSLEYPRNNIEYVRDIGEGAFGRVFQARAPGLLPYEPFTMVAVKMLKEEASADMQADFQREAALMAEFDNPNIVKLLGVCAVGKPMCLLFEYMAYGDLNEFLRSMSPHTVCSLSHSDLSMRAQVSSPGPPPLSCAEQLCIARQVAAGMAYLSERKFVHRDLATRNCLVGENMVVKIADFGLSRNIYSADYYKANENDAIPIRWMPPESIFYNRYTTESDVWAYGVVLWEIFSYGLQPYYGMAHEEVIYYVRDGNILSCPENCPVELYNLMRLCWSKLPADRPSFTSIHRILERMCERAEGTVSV
Experiment: KINOMEscan ScanTK
Assay type: binding
Conditions: read-out: %Control @1000nM
PARAMETER MEASURED: remaining binding at 1 µM (%)

COC(=O)c1cnc(S(C)(=O)=O)nc1N1CCCC(n2nc(-c3ccc(Oc4ccccc4)cc3)c3c(N)ncnc32)C1 (centres unmarked)
92
CCOC(=O)c1cnc(S(C)(=O)=O)nc1N1CCC[C@@H](n2nc(-c3ccc(Oc4ccccc4)cc3)c3c(N)ncnc32)C1
73
C=CC(=O)N1CCC[C@@H](n2nc(-c3ccc(Oc4ccccc4)cc3)c3c(N)ncnc32)C1 [Compound 1g, Ibrutinib, reference compound]
95
CNC(=O)c1cnc(S(C)(=O)=O)nc1N1CCCC(n2nc(-c3ccc(Oc4ccccc4)cc3)c3c(N)ncnc32)C1 (centres unmarked)
98
Cc1cnc(S(C)(=O)=O)nc1N1CCCC(n2nc(-c3ccc(Oc4ccccc4)cc3)c3c(N)ncnc32)C1 (centres unmarked)
88

* * *

Molecular target: FLT4 (Homo sapiens)
Construct: purchased Eurofins DiscoverX KINOMEscan (scanTK)
Sequence (P35916 25-1363): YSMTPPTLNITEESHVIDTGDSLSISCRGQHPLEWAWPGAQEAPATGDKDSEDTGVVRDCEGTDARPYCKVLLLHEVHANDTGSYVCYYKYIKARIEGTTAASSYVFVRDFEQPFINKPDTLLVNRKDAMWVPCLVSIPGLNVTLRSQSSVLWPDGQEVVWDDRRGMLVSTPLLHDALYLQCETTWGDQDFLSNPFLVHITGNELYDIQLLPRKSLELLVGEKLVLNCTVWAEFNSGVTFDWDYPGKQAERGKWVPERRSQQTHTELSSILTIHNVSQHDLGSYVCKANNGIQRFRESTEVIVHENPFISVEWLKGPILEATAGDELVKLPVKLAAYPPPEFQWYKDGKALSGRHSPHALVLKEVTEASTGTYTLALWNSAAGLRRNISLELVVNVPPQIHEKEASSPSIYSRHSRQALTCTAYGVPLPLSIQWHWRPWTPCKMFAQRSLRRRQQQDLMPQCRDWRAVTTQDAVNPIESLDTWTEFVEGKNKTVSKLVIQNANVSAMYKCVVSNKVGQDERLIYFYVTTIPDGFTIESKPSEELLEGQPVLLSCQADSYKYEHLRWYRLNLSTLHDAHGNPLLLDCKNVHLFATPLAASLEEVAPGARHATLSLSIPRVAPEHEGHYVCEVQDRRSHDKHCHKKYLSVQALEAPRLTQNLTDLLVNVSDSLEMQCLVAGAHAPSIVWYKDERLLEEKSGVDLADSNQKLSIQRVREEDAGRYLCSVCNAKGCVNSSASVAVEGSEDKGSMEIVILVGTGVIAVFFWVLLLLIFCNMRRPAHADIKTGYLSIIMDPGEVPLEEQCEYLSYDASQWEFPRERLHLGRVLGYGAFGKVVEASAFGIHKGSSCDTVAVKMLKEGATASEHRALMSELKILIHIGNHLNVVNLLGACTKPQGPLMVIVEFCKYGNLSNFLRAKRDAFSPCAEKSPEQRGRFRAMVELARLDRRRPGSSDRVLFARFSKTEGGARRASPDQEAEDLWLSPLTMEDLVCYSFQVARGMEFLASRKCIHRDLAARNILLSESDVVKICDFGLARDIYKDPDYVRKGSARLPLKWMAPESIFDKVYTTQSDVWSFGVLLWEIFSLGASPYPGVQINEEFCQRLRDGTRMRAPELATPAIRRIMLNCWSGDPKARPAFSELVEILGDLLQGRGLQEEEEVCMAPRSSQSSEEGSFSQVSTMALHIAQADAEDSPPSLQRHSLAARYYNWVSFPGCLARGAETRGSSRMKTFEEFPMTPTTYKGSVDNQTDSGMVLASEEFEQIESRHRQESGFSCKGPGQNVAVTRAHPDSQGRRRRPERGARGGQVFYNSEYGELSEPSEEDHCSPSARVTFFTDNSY
Test: KINOMEscan ScanTK
Format: binding
Settings: @1000nM
PARAMETER MEASURED: difference in %Control from compound Ib at 1 µM (%)

Cc1cnc(S(C)(=O)=O)nc1N1CCCC(n2nc(-c3ccc(Oc4ccccc4)cc3)c3c(N)ncnc32)C1 (stereo not shown) [Compound 8a]
61
CNC(=O)c1cnc(S(C)(=O)=O)nc1N1CCCC(n2nc(-c3ccc(Oc4ccccc4)cc3)c3c(N)ncnc32)C1 (stereo not shown) [Compound 8d]
67
COC(=O)c1cnc(S(C)(=O)=O)nc1N1CCCC(n2nc(-c3ccc(Oc4ccccc4)cc3)c3c(N)ncnc32)C1 (stereo not shown) [Compound 8b]
62
CCOC(=O)c1cnc(S(C)(=O)=O)nc1N1CCC[C@@H](n2nc(-c3ccc(Oc4ccccc4)cc3)c3c(N)ncnc32)C1 [Compound 8c]
73

* * *

Biological target: JAK3(JH1domain-catalytic) (Homo sapiens, UniProt P52333)
Construct: JAK3(JH1domain-catalytic); purchased Eurofins DiscoverX KINOMEscan (scanTK)
Sequence (P52333 822-1124 limits assumed): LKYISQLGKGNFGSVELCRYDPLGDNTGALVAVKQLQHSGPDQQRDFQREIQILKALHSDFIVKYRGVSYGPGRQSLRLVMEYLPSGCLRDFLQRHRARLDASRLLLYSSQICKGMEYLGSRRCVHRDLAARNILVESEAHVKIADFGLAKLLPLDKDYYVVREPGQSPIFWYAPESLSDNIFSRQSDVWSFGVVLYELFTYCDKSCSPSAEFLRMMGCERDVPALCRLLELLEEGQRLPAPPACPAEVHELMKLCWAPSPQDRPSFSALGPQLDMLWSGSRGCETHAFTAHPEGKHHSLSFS
Experiment: KINOMEscan ScanTK
Type: binding
Conditions: @1000nM; JAK3(JH1domain-catalytic); read-out: %Control
PARAMETER MEASURED: remaining binding at 1 µM (%)

Cc1cnc(S(C)(=O)=O)nc1N1CCCC(n2nc(-c3ccc(Oc4ccccc4)cc3)c3c(N)ncnc32)C1 (centres unmarked)
100
CCOC(=O)c1cnc(S(C)(=O)=O)nc1N1CCC[C@@H](n2nc(-c3ccc(Oc4ccccc4)cc3)c3c(N)ncnc32)C1
100
COC(=O)c1cnc(S(C)(=O)=O)nc1N1CCCC(n2nc(-c3ccc(Oc4ccccc4)cc3)c3c(N)ncnc32)C1 (centres unmarked)
100
CNC(=O)c1cnc(S(C)(=O)=O)nc1N1CCCC(n2nc(-c3ccc(Oc4ccccc4)cc3)c3c(N)ncnc32)C1 (centres unmarked)
73
C=CC(=O)N1CCC[C@@H](n2nc(-c3ccc(Oc4ccccc4)cc3)c3c(N)ncnc32)C1 [Compound 1g, Ibrutinib, reference compound]
5.5

* * *

Molecular target: SRMS (Homo sapiens)
Construct: purchased Eurofins DiscoverX KINOMEscan (scanTK)
Sequence (Q9H3Y6 whole entry): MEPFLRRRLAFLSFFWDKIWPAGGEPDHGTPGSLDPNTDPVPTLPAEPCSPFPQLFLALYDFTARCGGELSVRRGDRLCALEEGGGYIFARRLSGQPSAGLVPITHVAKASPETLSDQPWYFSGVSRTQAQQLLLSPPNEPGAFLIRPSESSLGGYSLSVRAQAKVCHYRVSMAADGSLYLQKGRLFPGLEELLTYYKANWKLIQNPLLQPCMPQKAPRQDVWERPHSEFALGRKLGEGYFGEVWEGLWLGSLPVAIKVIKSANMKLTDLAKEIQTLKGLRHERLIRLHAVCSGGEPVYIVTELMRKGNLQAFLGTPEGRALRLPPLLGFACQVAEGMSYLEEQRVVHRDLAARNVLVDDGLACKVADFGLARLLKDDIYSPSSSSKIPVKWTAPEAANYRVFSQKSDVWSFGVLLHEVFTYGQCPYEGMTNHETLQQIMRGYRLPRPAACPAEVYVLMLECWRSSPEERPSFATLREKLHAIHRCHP
Experiment: KINOMEscan ScanTK
Assay type: binding
Conditions: @1000nM; SRMS; read-out: %Control
PARAMETER MEASURED: remaining binding at 1 µM (%)

Solved entries:
CNC(=O)c1cnc(S(C)(=O)=O)nc1N1CCCC(n2nc(-c3ccc(Oc4ccccc4)cc3)c3c(N)ncnc32)C1 (centres unmarked)
6.5
CCOC(=O)c1cnc(S(C)(=O)=O)nc1N1CCC[C@@H](n2nc(-c3ccc(Oc4ccccc4)cc3)c3c(N)ncnc32)C1
32
C=CC(=O)N1CCC[C@@H](n2nc(-c3ccc(Oc4ccccc4)cc3)c3c(N)ncnc32)C1 [Compound 1g, Ibrutinib, reference compound]
0

1: Cc1cnc(S(C)(=O)=O)nc1N1CCCC(n2nc(-c3ccc(Oc4ccccc4)cc3)c3c(N)ncnc32)C1 (centres unmarked)
2: COC(=O)c1cnc(S(C)(=O)=O)nc1N1CCCC(n2nc(-c3ccc(Oc4ccccc4)cc3)c3c(N)ncnc32)C1 (centres unmarked)
When 1 and 2 are compared, which has the higher number for remaining binding at 1 µM? State your choice using its label.
2
(2: 27%, 1: 16%)

* * *

Target: ABL1(F317I)-phosphorylated (Homo sapiens, UniProt P00519, F317I)
Construct: purchased Eurofins DiscoverX KINOMEscan (scanTK)
Test: KINOMEscan ScanTK
Assay type: binding
Settings: @1000nM
PARAMETER MEASURED: difference in %Control from reference compound Ib at 1 µM (%)

CNC(=O)c1cnc(S(C)(=O)=O)nc1N1CCCC(n2nc(-c3ccc(Oc4ccccc4)cc3)c3c(N)ncnc32)C1 (stereo not shown)
17
CCOC(=O)c1cnc(S(C)(=O)=O)nc1N1CCC[C@@H](n2nc(-c3ccc(Oc4ccccc4)cc3)c3c(N)ncnc32)C1
15

1: Cc1cnc(S(C)(=O)=O)nc1N1CCCC(n2nc(-c3ccc(Oc4ccccc4)cc3)c3c(N)ncnc32)C1 (stereo not shown)
2: COC(=O)c1cnc(S(C)(=O)=O)nc1N1CCCC(n2nc(-c3ccc(Oc4ccccc4)cc3)c3c(N)ncnc32)C1 (stereo not shown)
When 1 and 2 are compared, which has the higher number for difference in %Control from reference compound Ib at 1 µM? State your choice using its label.
1
(1: 17%, 2: 6%)

* * *

Target: ZAP70 (Homo sapiens, UniProt P43403)
Construct: purchased Eurofins DiscoverX KINOMEscan (scanTK)
Sequence (P43403 whole entry): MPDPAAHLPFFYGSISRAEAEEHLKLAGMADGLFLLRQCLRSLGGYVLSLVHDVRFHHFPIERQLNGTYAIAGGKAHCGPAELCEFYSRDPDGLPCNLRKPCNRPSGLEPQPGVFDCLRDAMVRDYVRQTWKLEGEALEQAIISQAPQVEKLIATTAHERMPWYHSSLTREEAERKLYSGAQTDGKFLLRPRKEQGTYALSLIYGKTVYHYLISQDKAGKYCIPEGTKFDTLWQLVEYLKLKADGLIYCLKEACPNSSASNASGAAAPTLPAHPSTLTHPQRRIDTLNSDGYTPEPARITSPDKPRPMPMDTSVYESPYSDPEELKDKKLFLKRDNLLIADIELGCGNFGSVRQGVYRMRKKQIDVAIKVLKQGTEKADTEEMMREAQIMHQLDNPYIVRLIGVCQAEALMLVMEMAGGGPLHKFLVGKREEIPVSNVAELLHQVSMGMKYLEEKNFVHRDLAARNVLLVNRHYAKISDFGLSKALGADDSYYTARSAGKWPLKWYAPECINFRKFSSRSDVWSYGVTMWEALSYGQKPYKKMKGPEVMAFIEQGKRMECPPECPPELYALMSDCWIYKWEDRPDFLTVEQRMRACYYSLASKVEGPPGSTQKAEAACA
Assay: KINOMEscan ScanTK
Format: binding
Conditions: read-out: %Control @1000nM
PARAMETER MEASURED: remaining binding at 1 µM (%)

COC(=O)c1cnc(S(C)(=O)=O)nc1N1CCCC(n2nc(-c3ccc(Oc4ccccc4)cc3)c3c(N)ncnc32)C1 (stereo not shown) [Compound 8b]
94
CNC(=O)c1cnc(S(C)(=O)=O)nc1N1CCCC(n2nc(-c3ccc(Oc4ccccc4)cc3)c3c(N)ncnc32)C1 (stereo not shown) [Compound 8d]
100
Cc1cnc(S(C)(=O)=O)nc1N1CCCC(n2nc(-c3ccc(Oc4ccccc4)cc3)c3c(N)ncnc32)C1 (stereo not shown) [Compound 8a]
92
CCOC(=O)c1cnc(S(C)(=O)=O)nc1N1CCC[C@@H](n2nc(-c3ccc(Oc4ccccc4)cc3)c3c(N)ncnc32)C1 [Compound 8c]
100

* * *

Target: ABL1(T315I)-phosphorylated (Homo sapiens, UniProt P00519, T315I)
Construct: purchased Eurofins DiscoverX KINOMEscan (scanTK)
Assay: KINOMEscan ScanTK
Type: binding
Conditions: read-out: %Control @1000nM
PARAMETER MEASURED: remaining binding at 1 µM (%)

Cc1cnc(S(C)(=O)=O)nc1N1CCCC(n2nc(-c3ccc(Oc4ccccc4)cc3)c3c(N)ncnc32)C1 (stereo not shown) [Compound 8a]
70
CCOC(=O)c1cnc(S(C)(=O)=O)nc1N1CCC[C@@H](n2nc(-c3ccc(Oc4ccccc4)cc3)c3c(N)ncnc32)C1 [Compound 8c]
72
CNC(=O)c1cnc(S(C)(=O)=O)nc1N1CCCC(n2nc(-c3ccc(Oc4ccccc4)cc3)c3c(N)ncnc32)C1 (stereo not shown) [Compound 8d]
85
COC(=O)c1cnc(S(C)(=O)=O)nc1N1CCCC(n2nc(-c3ccc(Oc4ccccc4)cc3)c3c(N)ncnc32)C1 (stereo not shown) [Compound 8b]
68
